target.under.test: hOT7T175 (Homo sapiens, UniProt Q969F8, L364H)
Sequence (Q969F8 whole entry L364H): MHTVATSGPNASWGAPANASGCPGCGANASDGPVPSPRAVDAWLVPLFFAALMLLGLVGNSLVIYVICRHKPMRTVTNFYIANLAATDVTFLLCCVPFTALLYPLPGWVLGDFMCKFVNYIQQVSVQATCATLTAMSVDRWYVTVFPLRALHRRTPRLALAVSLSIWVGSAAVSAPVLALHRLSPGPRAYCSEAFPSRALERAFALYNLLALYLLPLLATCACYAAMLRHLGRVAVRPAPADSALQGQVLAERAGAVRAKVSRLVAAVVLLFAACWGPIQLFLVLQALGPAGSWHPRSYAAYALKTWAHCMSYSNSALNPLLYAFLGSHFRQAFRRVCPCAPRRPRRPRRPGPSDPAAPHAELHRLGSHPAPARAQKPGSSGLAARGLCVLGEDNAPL
procedure.summary: hOT7T175 receptor binding activity: binding inhibition of Cy-5-labeled metastin (40-54) on hOT7T175-expressed CHO cells
Square brackets hold non-standard residues; d marks the D form. Peptide text beside a SMILES is read from it. * marks the point of attachment. 1Nal = N[C@@H](Cc1cccc2ccccc12)C(=O)O; Cyclohexanecarbonyl = O=C(C1CCCCC1)*; Arg(Me) = CNC(=N)NCCC[C@H](N)C(=O)O; 4Pal = N[C@@H](Cc1ccncc1)C(=O)O; Cha = N[C@@H](CC1CCCCC1)C(=O)O; azaGly = NNC(=O)O
reported.property: log10(IC50) (log10 of the value in nM)
Remember, log10 of IC50, in nM.

Param item = CNC(=N)NCCC[C@H](NC(=O)[C@H](CC(C)C)NC(=O)CNC(=O)[C@H](Cc1ccccc1)NC(=O)[C@H](CO)NC(=O)[C@H](CC(N)=O)NC(=O)[C@@H](Cc1c[nH]c2ccccc12)NC(=O)[C@H](CC(N)=O)NC(=O)[C@H](N)Cc1ccc(O)cc1)C(=O)N[C@@H](Cc1ccccc1)C(N)=O [Compound No. 142] ; retrieve measured log10(IC50).
1.41

Here is the next compound: CNC(=N)NCCC[C@H](NC(=O)[C@H](CC(C)C)NC(=O)NNC(=O)[C@H](Cc1ccccc1)NC(=O)[C@H](CO)NC(=O)[C@H](CC(N)=O)NC(=O)[C@H](Cc1c[nH]c2ccccc12)NC(=O)[C@H](CC(N)=O)NC(=O)[C@H](N)Cc1ccc(O)cc1)C(=O)N[C@@H](Cc1ccccc1)C(N)=O [Compound No. 232]
1.69

Here is the next compound: CNC(=N)NCCC[C@H](NC(=O)[C@H](CC(C)C)NC(=O)NNC(=O)[C@H](Cc1ccccc1)NC(=O)[C@H](CO)NC(=O)[C@H](CC(N)=O)NC(=O)C1CCCCC1)C(=O)N[C@@H](Cc1ccccc1)C(N)=O [Compound No. 278] (Cyclohexanecarbonyl-NSF[azaGly]L[Arg(Me)]F-NH2)
2.04

Here is the next compound: CCNC(=N)NCCC[C@H](NC(=O)[C@H](CC(C)C)NC(=O)CNC(=O)[C@H](Cc1ccccc1)NC(=O)[C@H](CO)NC(=O)[C@H](CC(N)=O)NC(=O)[C@H](Cc1c[nH]c2ccccc12)NC(=O)[C@H](CC(N)=O)NC(=O)[C@@H](N)Cc1ccc(O)cc1)C(=O)N[C@@H](Cc1ccccc1)C(N)=O [Compound No. 220]
2.52

Here is the next compound: CC(C)C[C@H](NC(=O)CNC(=O)[C@H](Cc1ccccc1)NC(=O)[C@H](CO)NC(=O)[C@H](CC(N)=O)NC(=O)[C@H](Cc1c[nH]c2ccccc12)NC(=O)[C@H](CC(N)=O)NC(=O)[C@@H](N)Cc1ccc(O)cc1)C(=O)N[C@@H](CCCNC(=N)N)C(=O)N[C@@H](Cc1ccc(O)cc1)C(N)=O [Compound No. 109] (H-YNWNSFGLRY-NH2)
1.36

Here is the next compound: CC(C)C[C@H](NC(=O)CNC(=O)[C@H](Cc1ccccc1)NC(=O)[C@H](CO)NC(=O)[C@H](CC(N)=O)NC(=O)[C@H](C)NC(=O)[C@H](CC(N)=O)NC(=O)[C@@H](N)Cc1ccc(O)cc1)C(=O)N[C@@H](CCCNC(=N)N)C(=O)N[C@@H](Cc1ccccc1)C(N)=O [Compound No. 67] (H-YNANSFGLRF-NH2)
1.43

Here is the next compound: CC(C)C[C@H](NC(=O)CNC(=O)[C@H](Cc1ccccc1)NC(=O)[C@H](CO)NC(=O)[C@H](CC(N)=O)NC(=O)[C@H](Cc1c[nH]c2ccccc12)NC(=O)[C@H](CC(N)=O)NC(=O)[C@@H](N)Cc1ccc(O)cc1)C(=O)N[C@@H](CCCNC(=N)N)C(=O)N[C@@H](Cc1cccc2ccccc12)C(N)=O [Compound No. 133] (H-YNWNSFGLR[1Nal]-NH2)
2.52

Here is the next compound: CC(C)C[C@H](NC(=O)CNC(=O)[C@H](Cc1ccccc1)NC(=O)[C@H](CO)NC(=O)[C@H](CC(N)=O)NC(=O)[C@H](Cc1c[nH]c2ccccc12)NC(=O)[C@H](CC(N)=O)NC(=O)[C@@H](N)Cc1ccc(O)cc1)C(=O)N[C@@H](CCCNC(=N)N)C(=O)N[C@@H](CC1CCCCC1)C(N)=O [Compound No. 112] (H-YNWNSFGLR[Cha]-NH2)
2.57

Here is the next compound: CNC(N)=NCCC[C@H](NC(=O)[C@H](CC(C)C)NC(=O)NNC(=O)[C@H](Cc1ccccc1)NC(=O)[C@H](CO)NC(=O)[C@H](CC(N)=O)NC(=O)[C@H](Cc1ccncc1)NC(=O)[C@H](CC(N)=O)NC(=O)[C@H](N)Cc1ccc(O)cc1)C(=O)N[C@@H](Cc1ccccc1)C(N)=O [Compound No. 286] (H-[dY]N[4Pal]NSF[azaGly]L[Arg(Me)]F-NH2)
1.23

====

target.under.test: hOT7T175 (Homo sapiens, UniProt Q969F8, L364H)
procedure.summary: hOT7T175 receptor binding activity: binding inhibition of Cy-5-labeled metastin (40-54) on hOT7T175-expressed CHO cells
Numbered stars: 1 amine (or outer) side, 2 acyl side, 3 side chain; on linkers, the order of the positions; unused ones are H or OH. Square brackets hold non-standard residues; d marks the D form. Peptide text beside a SMILES is read from it. X7 = CNC(=N)NCCCC[C@H](N[*:1])C(=O)[*:2]
pIC50 overview
The read-out pIC50 is expressed as -log10 of concentration in moles per litre.

Param item = CNC(=N)NCCCC[C@H](NC(=O)[C@H](CC(C)C)NC(=O)CNC(=O)[C@H](Cc1ccccc1)NC(=O)[C@H](CO)NC(=O)[C@H](CC(N)=O)NC(=O)[C@H](Cc1c[nH]c2ccccc12)NC(=O)[C@H](CC(N)=O)NC(=O)[C@@H](N)Cc1ccc(O)cc1)C(=O)N[C@@H](Cc1ccccc1)C(N)=O [Compound No. 312] (H-YNWNSFGL[X7]F-NH2) ; retrieve measured pIC50.
7.00

Proceed to the following item.
Param item = `CC(C)C[C@H](NC(=O)CNC(=O)[C@H](Cc1ccccc1)NC(=O)[C@H](CO)NC(=O)[C@H](CC(N)=O)NC(=O)[C@H](Cc1c[nH]c2ccccc12)NC(=O)[C@H](CC(N)=O)NC(=O)[C@@H](N)Cc1ccc(O)cc1)C(=O)N[C@@H](CCCNC(=N)N)C(=O)N[C@@H](Cc1c(F)c(F)c(F)c(F)c1F)C(N)=O` ; retrieve measured pIC50.
6.85

====

target.under.test: hOT7T175 (Homo sapiens, UniProt Q969F8, L364H)
procedure.summary: hOT7T175 receptor binding activity: binding inhibition of Cy-5-labeled metastin (40-54) on hOT7T175-expressed CHO cells
Square brackets hold non-standard residues; d marks the D form. Peptide text beside a SMILES is read from it. * marks the point of attachment. Propanoyl(3-indol-3-yl) = O=C(CCc1c[nH]c2ccccc12)*; Arg(Me) = CNC(=N)NCCC[C@H](N)C(=O)O; Fmoc = O=C(OCC1c2ccccc2-c2ccccc21)*; 2Pal = N[C@@H](Cc1ccccn1)C(=O)O; azaGly = NNC(=O)O
pIC50 overview
The read-out pIC50 is expressed as -log10 of concentration in moles per litre.

Param item = CC(C)C[C@H](NC(=O)CNC(=O)[C@H](Cc1ccccc1)NC(=O)[C@H](CO)NC(=O)[C@H](CC(N)=O)NC(=O)[C@H](Cc1c[nH]c2ccccc12)NC(=O)[C@H](CC(N)=O)NC(=O)[C@H](C)N)C(=O)N[C@@H](CCCNC(=N)N)C(=O)N[C@@H](Cc1ccccc1)C(N)=O [Compound No. 72] (H-ANWNSFGLRF-NH2) ; retrieve measured pIC50.
6.27

Here is the next compound: CNC(=N)NCCC[C@H](NC(=O)[C@H](CC(C)C)NC(=O)NNC(=O)[C@H](Cc1ccccc1)NC(=O)[C@H](CO)NC(=O)[C@H](CC(N)=O)NC(=O)[C@H](Cc1ccccn1)NC(=O)[C@H](CC(N)=O)NC(=O)[C@H](N)Cc1ccc(O)cc1)C(=O)N[C@@H](Cc1ccccc1)C(N)=O [Compound No. 285] (H-[dY]N[2Pal]NSF[azaGly]L[Arg(Me)]F-NH2)
7.40

Here is the next compound: CC(C)C[C@H](NC(=O)CNC(=O)[C@H](Cc1ccccc1)NC(=O)[C@H](CO)NC(=O)[C@H](CC(N)=O)NC(=O)CCc1c[nH]c2ccccc12)C(=O)N[C@@H](CCCNC(=N)N)C(=O)N[C@@H](Cc1ccccc1)C(N)=O [Compound No. 114] ({Propanoyl(3-indol-3-yl)}-NSFGLRF-NH2)
6.26

Here is the next compound: CC(C)C[C@H](NC(=O)CNC(=O)[C@H](Cc1ccccc1)NC(=O)[C@H](CO)NC(=O)[C@H](CC(N)=O)NC(=O)[C@H](Cc1c[nH]c2ccccc12)NC(=O)[C@H](CC(N)=O)NC(=O)[C@@H](N)Cc1ccc(O)cc1)C(=O)N[C@@H](CCCCN)C(=O)N[C@@H](Cc1ccccc1)C(N)=O [Compound No. 44] (H-YNWNSFGLKF-NH2)
6.72

Here is the next compound: CNC(=N)NCCC[C@H](NC(=O)[C@H](CC(C)C)NC(=O)CNC(=O)[C@H](Cc1ccccc1)NC(=O)[C@H](CO)NC(=O)[C@H](CC(N)=O)NC(=O)[C@H](Cc1c[nH]c2ccccc12)NC(=O)OCC1c2ccccc2-c2ccccc21)C(=O)N[C@@H](Cc1ccccc1)C(N)=O [Compound No. 145] (Fmoc-WNSFGL[Arg(Me)]F-NH2)
6.92

Continuing:
Param item = CNC(=N)NCCC[C@H](NC(=O)[C@H](CC(C)C)NC(=O)NNC(=O)[C@H](Cc1ccccc1)NC(=O)[C@H](CO)NC(=O)[C@H](CC(N)=O)NC(=O)[C@H](CCCNC(=N)N)NC(C)=O)C(=O)N[C@@H](Cc1ccccc1)C(N)=O [Compound No. 275] (Ac-RNSF[azaGly]L[Arg(Me)]F-NH2) ; retrieve measured pIC50.
6.39
